- TESTED ON: Virion infectivity factor (Human immunodeficiency virus type 1 group M subtype B (isolate BH10)) + Virion infectivity factor (Human immunodeficiency virus type 1 group M subtype B (isolate BRU/LAI)) + Virion infectivity factor (Human immunodeficiency virus type 1 group M subtype B (isolate PCV12)) + Virion infectivity factor (Human immunodeficiency virus type 1 group M subtype B (isolate HXB2)) + DNA dC->dU-editing enzyme APOBEC-3G (Homo sapiens) (UniProt P69720+P69721+P69722+P69723+Q9HC16)
- PROCEDURE DETAILS: HIV-1 Vif–A3G interaction blockers – biochemical, TR-FRET, GST-Vif 1-94, biotin-A3G peptide, dose response retest, primary screen (AID 1117319);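 also: Vif residues 1-94 fused to GST binding biotinylated APOBEC3G peptide 110-148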
- ASSAY SETUP: TR-FRET GST-Vif / biotin-A3G peptide binding
pIC50: −log10 of the molar value. Inconclusive results are not listed.
Binary call on pIC50: 1.0 from 5 upward, 0.0 beneath that.

C=CCn1c(SCC(=O)NCCCC)nc2scc(-c3ccco3)c2c1=O: 0.0
CCOC(=O)C(=O)NCc1ccc(/C=C2/N=C(C)C(C(=O)OCC)=C2O)o1: 1.0
CC(=O)N1CCN(c2ccc(NCc3ccc(C)s3)cc2)CC1: 1.0
COc1ccc(N2CCN(C(=O)c3c(-c4ccccc4)noc3C)CC2)cc1: 0.0
Cc1nn(-c2ccccn2)c2c1C(=O)C(Br)CC2 (stereo not given): 1.0
O=C(/C=C/c1ccco1)c1cccnc1: 0.0

Exam item: decide whether the reported pIC50 for Cc1cc(NC(=O)Cc2cccs2)no1 is at least 5. 1.0

Exam item: decide whether the reported pIC50 for COc1ccc(CCNC(=O)/C=C/c2ccco2)cc1 is at least 5. 0.0

Exam item: decide whether the reported pIC50 for Cc1cc(C(F)(F)F)n2nc(C(=O)O)c(Cl)c2n1 is at least 5. 0.0

Exam item: decide whether the reported pIC50 for Cc1cc(C(=O)O)ccc1-n1c(C)ccc1C is at least 5. 1.0

Exam item: decide whether the reported pIC50 for COc1ccc(NC(=O)Nc2cccs2)cc1OC is at least 5. 0.0

Exam item: decide whether the reported pIC50 for CC1Cc2ccccc2N1Cc1cc(=O)n2ccsc2n1 (stereo not given) is at least 5. 1.0

Exam item: decide whether the reported pIC50 for CCOC(=O)C1=C(N)n2c(s/c(=C/c3ccco3)c2=O)=C(C(=O)OC)C1c1ccco1 (stereo not given) is at least 5. 1.0

Exam item: decide whether the reported pIC50 for O=c1[nH]c2ccccc2n2c(-c3ccccc3)nnc12 is at least 5. 0.0

* * *

- TESTED ON: Virion infectivity factor (Human immunodeficiency virus type 1 group M subtype B (isolate BH10)) + Virion infectivity factor (Human immunodeficiency virus type 1 group M subtype B (isolate BRU/LAI)) + Virion infectivity factor (Human immunodeficiency virus type 1 group M subtype B (isolate PCV12)) + Virion infectivity factor (Human immunodeficiency virus type 1 group M subtype B (isolate HXB2)) + DNA dC->dU-editing enzyme APOBEC-3G (Homo sapiens) (UniProt P69720+P69721+P69722+P69723+Q9HC16)
- PROCEDURE DETAILS: HIV-1 Vif–A3G interaction blockers – biochemical, TR-FRET, GST-Vif 1-94, biotin-A3G peptide, dose response retest, primary screen (AID 1117319);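 also: Vif residues 1-94 fused to GST binding biotinylated APOBEC3G peptide 110-148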
- ASSAY SETUP: TR-FRET GST-Vif / biotin-A3G peptide binding
Results filed as inconclusive are left out.
Below, each entry is listed with its recorded pIC50.
# reply with the number alone; pIC50 is -log10 of concentration in mol/L

// known answers, use as guide
Cc1ccc(N(CN2C(=O)C3CC=CCC3C2=O)C(=O)c2ccco2)cc1Cl (configuration not stated): 4.27
CC(C)CC(NC(=O)/C(=C/c1ccco1)NC(=O)c1ccc(Br)o1)C(=O)O (configuration not stated): 4.03
CCOCCNC(=O)c1ccccc1C(=O)NCCOCC: 4.05
Cc1cccc(C)c1NS(=O)(=O)c1c(C)[nH]c(=O)[nH]c1=O: 4.07
O=C(CCN1C(=O)/C(=C/c2cccs2)SC1=S)NC1=NCCS1: 4.91
CCC1=NN2C(=N)/C(=C\c3ccc(SCc4ccco4)o3)C(=O)N=C2S1: 4.98
O=C1/C(=C/C=C/c2ccco2)SC(=S)N1c1ccc(O)cc1: 5.59
O=C1N=C(N2CCOCC2)SC1=Cc1ccco1: 4.03
CCc1cc(C=NC2CCCCC2)c(O)s1: 4.11
COC(=O)C1=C(O)/C(=C\c2ccc(CNC(=O)C(=O)Nc3ccc(C)cc3)o2)N=C1C: 4.62

Endpoint output: pIC50 of Cc1cc(C(=O)CSc2nnc(-c3ccco3)o2)c(C)n1Cc1ccco1 . Value? 5.71

Endpoint output: pIC50 of CCC(C(=O)OCC(=O)Nc1ccc(SC(F)F)cc1)c1ccccc1 (configuration not stated) . Value? 4.08

Endpoint output: pIC50 of CCCCN1C2CCCC1CC(NC(=O)c1ccc(OC)c(OC)c1)C2 (configuration not stated) . Value? 4.72

Endpoint output: pIC50 of COc1ccc2ccccc2c1C1CC(=O)N2CN(Cc3ccco3)CSC2=C1C#N (configuration not stated) . Value? 4.27

Endpoint output: pIC50 of CCN1CCC(=NNC(=O)CC23CC4CC(CC(C4)C2)C3)CC1 . Value? 4.01

Endpoint output: pIC50 of CCN(CC)c1ccc(N=Cc2c(O)n(-c3ccc(Cl)cc3)c(=O)[nH]c2=O)cc1 . Value? 4.42

Endpoint output: pIC50 of O=C(O)C1Nc2c(O)cccc2C2C=CCC12 (configuration not stated) . Value? 6.60

Endpoint output: pIC50 of CCc1cc2cc(C)cc(C)c2nc1SCC(=O)N1CCN(C(=O)c2ccco2)CC1 . Value? 4.90

Endpoint output: pIC50 of O=C(CC1C(=O)NCCN1Cc1ccc(F)cc1)NCCN1CCCc2ccccc21 (configuration not stated) . Value? 4.01

Endpoint output: pIC50 of Cc1[nH]c2ccccc2c1C(=O)Cn1c(=O)oc2ccccc21 . Value? 4.02

Endpoint output: pIC50 of COc1ccc(NC2CS(=O)(=O)CC2NCc2ccco2)cc1 (configuration not stated) . Value? 4.20

Endpoint output: pIC50 of CCC(c1nnnn1C(C)(C)CC)N(CCCO)Cc1cc2cc(C)cc(C)c2[nH]c1=O (configuration not stated) . Value? 6.31
